Here the recorded IC50 is given for each entry.
# assay-system: VLA4 (Homo sapiens, UniProt P05556+P13612)
# Construct: endogenous in cells
# Sequence (P13612 34-1032): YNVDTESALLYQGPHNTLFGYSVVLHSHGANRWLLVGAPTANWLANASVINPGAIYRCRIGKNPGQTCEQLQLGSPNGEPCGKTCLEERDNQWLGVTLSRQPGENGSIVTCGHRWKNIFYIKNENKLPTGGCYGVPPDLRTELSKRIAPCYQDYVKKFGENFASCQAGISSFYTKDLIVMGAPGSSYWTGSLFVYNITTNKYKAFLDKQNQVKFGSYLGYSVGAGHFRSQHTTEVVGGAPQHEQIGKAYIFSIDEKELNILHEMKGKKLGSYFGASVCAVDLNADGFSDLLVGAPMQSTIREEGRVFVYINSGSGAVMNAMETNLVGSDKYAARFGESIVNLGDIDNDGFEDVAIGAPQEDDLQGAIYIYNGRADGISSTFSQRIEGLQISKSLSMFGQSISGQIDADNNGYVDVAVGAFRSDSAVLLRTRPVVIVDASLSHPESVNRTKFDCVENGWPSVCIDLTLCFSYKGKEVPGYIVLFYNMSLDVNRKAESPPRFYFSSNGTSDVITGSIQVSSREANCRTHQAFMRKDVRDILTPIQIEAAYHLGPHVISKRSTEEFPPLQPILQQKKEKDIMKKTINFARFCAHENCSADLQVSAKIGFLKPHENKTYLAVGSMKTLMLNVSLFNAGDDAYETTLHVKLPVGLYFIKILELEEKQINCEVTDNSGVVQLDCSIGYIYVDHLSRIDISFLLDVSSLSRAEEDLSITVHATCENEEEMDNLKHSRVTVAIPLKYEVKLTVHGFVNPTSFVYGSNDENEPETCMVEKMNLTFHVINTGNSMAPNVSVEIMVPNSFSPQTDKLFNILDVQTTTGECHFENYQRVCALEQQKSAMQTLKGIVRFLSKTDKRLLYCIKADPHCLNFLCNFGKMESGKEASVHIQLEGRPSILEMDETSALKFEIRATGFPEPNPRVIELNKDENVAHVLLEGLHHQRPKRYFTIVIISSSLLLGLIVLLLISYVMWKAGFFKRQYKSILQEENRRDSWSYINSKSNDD
# Sequence (P05556 21-798): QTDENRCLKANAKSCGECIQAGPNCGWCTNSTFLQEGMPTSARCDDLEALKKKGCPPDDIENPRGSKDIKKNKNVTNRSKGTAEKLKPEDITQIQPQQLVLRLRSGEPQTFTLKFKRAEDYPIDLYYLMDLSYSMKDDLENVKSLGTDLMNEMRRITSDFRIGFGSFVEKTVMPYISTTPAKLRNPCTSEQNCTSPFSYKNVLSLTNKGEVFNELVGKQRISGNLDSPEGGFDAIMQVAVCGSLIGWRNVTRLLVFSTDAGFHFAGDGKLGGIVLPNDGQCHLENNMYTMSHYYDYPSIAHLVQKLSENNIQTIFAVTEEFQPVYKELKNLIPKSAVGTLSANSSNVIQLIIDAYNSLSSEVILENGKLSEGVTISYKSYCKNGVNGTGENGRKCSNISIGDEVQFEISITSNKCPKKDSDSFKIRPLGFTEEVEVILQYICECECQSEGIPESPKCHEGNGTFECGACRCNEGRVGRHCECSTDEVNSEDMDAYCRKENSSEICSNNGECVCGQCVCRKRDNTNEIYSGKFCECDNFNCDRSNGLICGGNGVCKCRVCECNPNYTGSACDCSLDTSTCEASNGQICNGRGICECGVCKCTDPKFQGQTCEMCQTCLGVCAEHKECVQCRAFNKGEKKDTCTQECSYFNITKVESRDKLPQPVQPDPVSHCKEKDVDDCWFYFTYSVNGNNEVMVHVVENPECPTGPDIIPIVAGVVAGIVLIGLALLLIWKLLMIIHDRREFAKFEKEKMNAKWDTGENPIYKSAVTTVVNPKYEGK
# protocol: Inhibition of VLA4-dependent adhesion to BSA-CS1 (labelled Ramos cells)
# test-parameters: binding of BCECF-AM labelled Ramos cells to CS1 peptide-coated wells, 2 mM MnCl2, 30 minutes at room temperature; IC50 range
# Method: For example, the cell adhesion inhibitory activity of these compounds may be measured by determining the concentration of inhibitor required to block the binding of VLA-4-expressing cells to fibronectin- or CS1-coated plates. […] Inhibition of binding is measured by quantitating the fluorescence or radioactivity bound to the plate for each of the various concentrations of test compound, as well as for controls containing no test compound. […]

- compound: "CC(C)CC(NC(=O)Cc1ccc(NC(=O)Nc2cccnc2)cc1)C(=O)NC(CC(=O)O)c1ccc2c(c1)OCO2 (centres unmarked)"
  result: "0.05 to 10 µM"

For record CC(C)CC(NC(=O)Cc1ccc(NC(=O)OC(C)(C)C)cc1)C(=O)NC(CC(=O)O)c1ccccc1 (centres unmarked) the listed IC50 is 0.05 to 10 µM

Record CCCC(NC(=O)Cc1ccccc1)C(=O)NC(CC(=O)O)c1ccccc1 (centres unmarked) , field IC50: > 10 µM

The compound identified as CC(C)CC(NC(=O)C1(c2ccccc2)CC1)C(=O)NC(CC(=O)O)c1ccccc1 (centres unmarked) registered its IC50 at > 10 µM

Data point: CC(C)CC(NC(=O)Cc1ccccc1)C(=O)NC(CC(=O)O)c1ccc2c(c1)CCC2 (centres unmarked) ; IC50 = 0.05 to 10 µM

Value of measured IC50 for the entry CC(C)CC(NC(=O)Cc1ccc(NC(=O)c2ccccc2N)cc1)C(=O)NC(CC(=O)O)c1ccccc1 (centres unmarked) : 0.05 to 10 µM

Measured IC50 of CC(C)CC(NC(=O)Cc1cccc(O)c1)C(=O)NC(CC(=O)O)c1ccccc1 (centres unmarked) : 0.05 to 10 µM

Field IC50 (entry O=C(O)CC(NC(=O)C(Cc1nccs1)NC(=O)Cc1ccc(NC(=O)Nc2ccccc2)cc1)c1ccccc1 (centres unmarked) ) reads 0.05 to 10 µM

---

# assay-system: VLA4 (Homo sapiens, UniProt P05556+P13612)
# Construct: endogenous in cells; host or cells: Ramos cells
# protocol: Inhibition of VLA4-dependent adhesion to BSA-CS1 (labelled Ramos cells)
# Format: cell-based
# test-parameters: binding of BCECF-AM labelled Ramos cells to CS1 peptide-coated wells, 2 mM MnCl2, 30 minutes at room temperature; IC50 range
pIC50: −log10 of the molar value.
# Lookup of reported pIC50 keyed by entry

- compound: "CC(C)CC(NC(=O)Cc1ccccc1N)C(=O)NC(CC(=O)O)c1ccccc1 (stereo not drawn)"
  pIC50: "< 5.00"
- compound: "CCc1ccccc1NC(=O)Nc1ccc(CC(=O)NC(CC(C)C)C(=O)NC(CC(=O)O)c2ccc(OC)cc2)cc1 (stereo not drawn)"
  pIC50: "5.00 to 7.30"
- compound: "CC(C)CC(NC(=O)Cc1ccccc1)C(=O)NC(CC(=O)O)c1ccccc1 (stereo not drawn)"
  pIC50: "5.00 to 7.30"
- compound: "CC(C)CC(NC(=O)Cc1ccccn1)C(=O)NC(CC(=O)O)c1ccccc1 (stereo not drawn)"
  pIC50: "< 5.00"
- compound: "COc1ccccc1NC(=O)Nc1ccc(CC(=O)NC(CC(C)C)C(=O)NC(CC(=O)O)c2ccc3c(c2)OCO3)cc1 (stereo not drawn)"
  pIC50: "> 7.30"
- compound: "CC(C)CC(NC(=O)Nc1ccccc1)C(=O)NC(CC(=O)O)c1ccccc1 (stereo not drawn)"
  pIC50: "5.00 to 7.30"

Lookup result for CC(C)CC(NC(=O)Cc1ccc(N)cc1)C(=O)NC(CC(=O)O)c1ccccc1 (stereo not drawn) [compound 1016] ; measured pIC50: < 5.00

Given item CC(C)CC(NC(=O)Cc1ccc(NC(=O)Nc2ccccc2)cc1)C(=O)NC(CC(=O)O)c1ccc2c(c1)OCO2 (stereo not drawn) , the value recorded as its pIC50 is > 7.30

What the record says about CC(C)CC(NC(=O)Cc1ccccc1NC(=O)OCc1ccccc1)C(=O)NC(CC(=O)O)c1ccccc1 (stereo not drawn) : pIC50 is < 5.00

O=C(O)CC(NC(=O)C(Cc1ccccc1)NC(=O)Cc1ccc(NC(=O)Nc2ccccc2)cc1)c1ccccc1 (stereo not drawn) has a reported pIC50 of 5.00 to 7.30

Field pIC50 (entry CC(C)CC(NC(=O)CCCCCNC(=O)NC(C)(C)C)C(=O)NC(CC(=O)O)c1ccccc1 (stereo not drawn) ) reads < 5.00

The measured pIC50 associated with COc1cccc(NC(=O)Nc2ccc(CC(=O)NC(CC(C)C)C(=O)NC(CC(=O)O)c3ccc4c(c3)OCO4)cc2)c1 (stereo not drawn) reads 5.00 to 7.30

Given item Cc1ccccc1NC(=O)Nc1ccc(CC(=O)NC(CCS(C)(=O)=O)C(=O)NC(CC(=O)O)c2ccc3c(c2)OCO3)cc1 (stereo not drawn) , the value recorded as its pIC50 is > 7.30

Documented pIC50 of CC(C)CC(NC(=O)Cc1cccc([N+](=O)[O-])c1)C(=O)NC(CC(=O)O)c1ccccc1 (stereo not drawn) : < 5.00

Record COc1ccc(C(CC(=O)O)NC(=O)C(CC(C)C)NC(=O)Cc2ccc(NC(=O)Nc3ccccc3)cc2)cc1OC (stereo not drawn) , field pIC50: > 7.30

---

# assay-system: VLA4 (Homo sapiens, UniProt P05556+P13612)
# Construct: endogenous in cells
# protocol: Inhibition of VLA4-dependent adhesion to BSA-CS1 (labelled Ramos cells)
# test-parameters: binding of BCECF-AM labelled Ramos cells to CS1 peptide-coated wells, 2 mM MnCl2, 30 minutes at room temperature; IC50 range
Measured IC50 values are reported for all entries that follow.

Observe how each entry below is paired with its result.
- compound: "COc1cc(CC(=O)NC(CC(C)C)C(=O)NC(CC(=O)O)c2ccc3c(c2)OCO3)ccc1NC(=O)Nc1ccccc1C (stereo not drawn)"
  assay-system: "VLA4 (Homo sapiens, UniProt P05556+P13612)"
  property: "IC50"
  result: "< 0.05 µM"
- compound: "CC(C)CC(NC(=O)Cc1ccc(NC(=O)c2ccccc2)cc1)C(=O)NC(CC(=O)O)c1ccccc1 (stereo not drawn) [compound 1105]"
  assay-system: "VLA4 (Homo sapiens, UniProt P05556+P13612)"
  property: "IC50"
  result: "0.05 to 10 µM"
- compound: "Cc1ccccc1NC(=O)Nc1ccc(CC(=O)NC(CCCCNS(C)(=O)=O)C(=O)NC(CC(=O)O)c2ccc3c(c2)OCO3)cc1 (stereo not drawn)"
  assay-system: "VLA4 (Homo sapiens, UniProt P05556+P13612)"
  property: "IC50"
  result: "< 0.05 µM"
- compound: "CC(C)CC(NC(=O)Cc1ccccc1)C(=O)NC(CC(=O)O)Cc1ccccc1 (stereo not drawn)"
  assay-system: "VLA4 (Homo sapiens, UniProt P05556+P13612)"
  property: "IC50"
  result: "> 10 µM"
- compound: "CC(C)CC(NC(=O)CCc1ccc(NC(=O)Nc2ccccc2)cc1)C(=O)NC(CC(=O)O)c1ccccc1 (stereo not drawn)"
  assay-system: "VLA4 (Homo sapiens, UniProt P05556+P13612)"
  property: "IC50"
  result: "0.05 to 10 µM"
- compound: "CC(C)CC(NC(=O)Nc1ccc(N)cc1)C(=O)NC(CC(=O)O)c1ccccc1 (stereo not drawn)"
  assay-system: "VLA4 (Homo sapiens, UniProt P05556+P13612)"
  property: "IC50"
  result: "> 10 µM"

Hey, VLA4 (Homo sapiens, UniProt P05556+P13612) data for CC(C)CC(NC(=O)Cc1ccccc1)C(=O)NC(CC(=O)O)c1ccc(Cl)cc1 (stereo not drawn) : IC50 came out at 0.05 to 10 µM

Item: CCCCCCC(=O)NC(CC(C)C)C(=O)NC(CC(=O)O)c1ccccc1 (stereo not drawn) | System: VLA4 (Homo sapiens, UniProt P05556+P13612) | IC50: > 10 µM

Record for CC(C)CC(NC(=O)Cc1ccc(NC(=O)OCc2ccccc2)cc1)C(=O)NC(CC(=O)O)c1ccc2c(c1)OCO2 (stereo not drawn) under target or system VLA4 (Homo sapiens, UniProt P05556+P13612): IC50 reported as 0.05 to 10 µM

Entry CC(C)CC(NC(=O)Cc1ccc(NC(=O)Nc2cccc(Cl)c2)cc1)C(=O)NC(CC(=O)O)c1ccc2c(c1)OCO2 (stereo not drawn) , VLA4 (Homo sapiens, UniProt P05556+P13612) data, IC50 value: 0.05 to 10 µM

// IC50 (VLA4 (Homo sapiens, UniProt P05556+P13612)) for CC(C)CC(NC(=O)Cc1ccc(NC(=O)Nc2ccccc2)cc1)C(=O)NC(CC(=O)O)Cc1ccccc1 (stereo not drawn) = 0.05 to 10 µM
